target_under_test: TRMT10C Mitochondrial ribonuclease P protein 1 (Homo sapiens, UniProt Q7L0Y3)
Construct: isoTOP-ABPP experiments performed in cell lysates (in vitro); endogenous in cells; host or cells: soluble proteome of human cancer cell lines (MDA-MB-231; Ramos and Jurkat also prepared)
Sequence (Q7L0Y3 40-403): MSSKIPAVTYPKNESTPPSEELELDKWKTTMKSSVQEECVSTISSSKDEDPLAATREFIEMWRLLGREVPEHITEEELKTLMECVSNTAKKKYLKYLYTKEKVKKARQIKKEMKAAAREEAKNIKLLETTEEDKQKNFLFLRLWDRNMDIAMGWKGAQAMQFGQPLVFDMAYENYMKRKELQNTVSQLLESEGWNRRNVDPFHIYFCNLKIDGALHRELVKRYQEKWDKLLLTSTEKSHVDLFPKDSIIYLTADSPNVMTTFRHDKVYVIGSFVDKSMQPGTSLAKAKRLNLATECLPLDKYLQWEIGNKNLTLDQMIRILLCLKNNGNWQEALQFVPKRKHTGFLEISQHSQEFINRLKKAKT
method_notes: competitive isoTOP-ABPP
Format: binding
conditions_used: 50 uM, in vitro, sol, 231
readout_name: isoTOP-ABPP ratio (R) at liganded lysine Q7L0Y3_K325
Answers are plain numbers.

Example entries and their recorded answers appear below.
molecule="O=C(Oc1ccc([N+](=O)[O-])cc1[N+](=O)[O-])c1ccc(Oc2ccccc2)cc1 [fragment 39, 2,4-Dinitrophenyl 4-phenoxybenzoate]" measurement=0.9
molecule=O=C(CC12CC3CC(CC(C3)C1)C2)Oc1ccc([N+](=O)[O-])cc1[N+](=O)[O-] measurement=0.8
molecule=O=C(Oc1ccc([N+](=O)[O-])cc1[N+](=O)[O-])C1CCN(C(=O)OCc2ccccc2)CC1 measurement=1.0
molecule=CC(C)(C)OC(=O)NCCCC(=O)Oc1ccc([N+](=O)[O-])cc1[N+](=O)[O-] measurement=0.9
molecule=O=C(Oc1ccc([N+](=O)[O-])cc1[N+](=O)[O-])c1ccccc1Nc1cccc(C(F)(F)F)c1 measurement=0.9

// for each molecule below, give its isoTOP-ABPP ratio (R) at liganded lysine Q7L0Y3_K325
1. O=C(Oc1ccc([N+](=O)[O-])cc1[N+](=O)[O-])C(c1ccccc1)(c1ccccc1)c1ccccc1 [fragment 42, 2,4-Dinitrophenyl 2,2,2-triphenylacetate]
2. O=C(Oc1ccc([N+](=O)[O-])cc1[N+](=O)[O-])c1ccc(-c2ccccc2)cc1
3. CC(=O)Oc1ccc([N+](=O)[O-])cc1[N+](=O)[O-] [fragment 43, 2,4-Dinitrophenyl acetate]
4. O=C(Oc1ccc([N+](=O)[O-])cc1[N+](=O)[O-])c1ccc2ccccc2n1

**Result**
1. 1.0
2. 1.0
3. 1.0
4. 1.0

---

Exercise: for every item that follows, state its recorded R value (DMSO/fragment) for probe 1 labeling.
target_under_test: PNPO Pyridoxine-5-phosphate oxidase (Homo sapiens, UniProt Q9NVS9)
Construct: endogenous in cells; host or cells: MDA-MB-231 (soluble fraction of lysate)
Sequence (Q9NVS9 whole entry): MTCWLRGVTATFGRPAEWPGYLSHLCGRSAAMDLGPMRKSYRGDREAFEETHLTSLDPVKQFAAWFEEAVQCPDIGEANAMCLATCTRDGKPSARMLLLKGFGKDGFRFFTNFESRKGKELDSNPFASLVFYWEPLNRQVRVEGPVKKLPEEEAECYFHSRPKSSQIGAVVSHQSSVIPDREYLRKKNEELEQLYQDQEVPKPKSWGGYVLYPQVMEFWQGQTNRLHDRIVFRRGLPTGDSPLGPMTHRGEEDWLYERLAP
method_notes: competitive isoTOP-ABPP
Assay type: binding
conditions_used: Q9NVS9_K100; 50 uM, 231 sol, in vitro

Please review the entries below; each comes with its answer.
molecule=COc1cc(CCC(=O)Oc2c(F)c(F)c(F)c(F)c2F)cc(OC)c1OC measurement=1.8
molecule=O=C(Oc1c(F)c(F)c(F)c(F)c1F)c1cc(C(F)(F)F)cc(C(F)(F)F)c1 measurement=0.9
molecule=Cn1cc(CC(=O)Oc2c(F)c(F)c(F)c(F)c2F)c2ccccc21 measurement=20.0

Please give R value (DMSO/fragment) for probe 1 labeling for each item listed below.
1. O=C(CCc1cn(-c2ccccc2)nc1-c1ccccc1)Oc1c(F)c(F)c(F)c(F)c1F
2. O=C(Oc1c(F)c(F)c(F)c(F)c1F)C(c1ccccc1)c1ccccc1 [fragment 20, Pentafluorophenyl 2,2-diphenylacetate]

**Result**
20.0
0.9

---

target_under_test: TPMT Thiopurine S-methyltransferase (Homo sapiens, UniProt P51580)
Construct: isoTOP-ABPP experiments performed in cell lysates (in vitro); endogenous in cells; host or cells: soluble proteome of human cancer cell lines (MDA-MB-231; Ramos and Jurkat also prepared)
Sequence (P51580 1-245): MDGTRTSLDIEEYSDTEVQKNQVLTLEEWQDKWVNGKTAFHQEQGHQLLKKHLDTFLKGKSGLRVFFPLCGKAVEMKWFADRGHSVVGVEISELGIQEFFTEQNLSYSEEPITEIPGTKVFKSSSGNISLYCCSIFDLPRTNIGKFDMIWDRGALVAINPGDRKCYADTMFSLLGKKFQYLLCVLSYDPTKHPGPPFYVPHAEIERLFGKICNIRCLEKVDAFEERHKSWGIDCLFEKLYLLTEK
method_notes: competitive isoTOP-ABPP
Type: binding
conditions_used: 50 uM_231_sol_in vitro
Consider the following compounds; for each one, report its isoTOP-ABPP ratio, lysine P51580_K32.
One number for each entry.

Please review the following examples before continuing.
compound=O=C(Oc1c(F)c(F)c(C(F)(F)F)c(F)c1F)c1cc(C(F)(F)F)cc(C(F)(F)F)c1 measurement=9.5
compound=O=C(ON1C(=O)CCC1=O)c1cc(C(F)(F)F)cc(C(F)(F)F)c1 measurement=20.0
compound="N#Cc1ccc(C(=O)Oc2ccc([N+](=O)[O-])cc2[N+](=O)[O-])cc1 [fragment 44, 2,4-Dinitrophenyl 4-cyanobenzoate]" measurement=1.4
compound=O=C(Oc1c(F)c(F)cc(F)c1F)c1cc(C(F)(F)F)cc(C(F)(F)F)c1 measurement=4.4
compound=O=C(CCc1ccc2c(c1)OCO2)Oc1ccc([N+](=O)[O-])cc1[N+](=O)[O-] measurement=2.3

**Query** For the compound NC(=O)c1cc(C(F)(F)F)cc(C(F)(F)F)c1 [fragment 51, reference compound] , report isoTOP-ABPP ratio, lysine P51580_K32.
**Result** 0.8
